Reference source for all entries: ChEMBL document CHEMBL1135065

ASSAYED SYSTEM: Alpha-1D adrenergic receptor (Homo sapiens, UniProt P25100)
Sequence (P25100 whole entry): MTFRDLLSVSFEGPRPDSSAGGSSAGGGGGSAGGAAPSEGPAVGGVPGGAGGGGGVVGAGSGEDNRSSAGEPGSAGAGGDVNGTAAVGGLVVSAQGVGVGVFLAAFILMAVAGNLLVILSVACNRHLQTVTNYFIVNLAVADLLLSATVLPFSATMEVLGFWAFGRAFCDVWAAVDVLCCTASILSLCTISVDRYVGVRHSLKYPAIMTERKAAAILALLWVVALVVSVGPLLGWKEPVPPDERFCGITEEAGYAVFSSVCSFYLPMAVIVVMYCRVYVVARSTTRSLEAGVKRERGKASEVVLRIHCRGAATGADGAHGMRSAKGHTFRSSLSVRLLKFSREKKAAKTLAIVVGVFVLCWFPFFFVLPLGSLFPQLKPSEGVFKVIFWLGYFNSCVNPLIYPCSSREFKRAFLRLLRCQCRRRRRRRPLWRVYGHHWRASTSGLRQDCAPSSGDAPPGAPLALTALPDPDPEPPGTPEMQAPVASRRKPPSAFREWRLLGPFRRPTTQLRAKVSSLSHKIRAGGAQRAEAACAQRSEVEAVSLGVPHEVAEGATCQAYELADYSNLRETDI
METHOD: In vitro activation of human alpha-1D receptor expressed in rat-1 fibroblasts via calcium using mobilization through the Gq coupled PLC pathway as functional assay
pEC50: −log10 of the molar value.
MEASUREMENT NAME: pEC50

# count of solved cases: 6
{"STRUCTURE AS SMILES": "Nc1nccc(-c2ccccc2NCC2=NCCN2)n1", "ASSAYED SYSTEM": "Alpha-1D adrenergic receptor (Homo sapiens, UniProt P25100)", "MEASURED RESULT": 7.54}
{"STRUCTURE AS SMILES": "CC/C(=N/OC)c1ccccc1NCC1=NCCN1", "ASSAYED SYSTEM": "Alpha-1D adrenergic receptor (Homo sapiens, UniProt P25100)", "MEASURED RESULT": "< 5.30"}
{"STRUCTURE AS SMILES": "c1ccc(-c2cnccn2)c(NCC2=NCCN2)c1", "ASSAYED SYSTEM": "Alpha-1D adrenergic receptor (Homo sapiens, UniProt P25100)", "MEASURED RESULT": 6.74}
{"STRUCTURE AS SMILES": "FC(F)(F)c1cccnc1-c1ccccc1NCC1=NCCN1", "ASSAYED SYSTEM": "Alpha-1D adrenergic receptor (Homo sapiens, UniProt P25100)", "MEASURED RESULT": "< 4.00"}
{"STRUCTURE AS SMILES": "c1ccc(-c2cnoc2)c(NCC2=NCCN2)c1", "ASSAYED SYSTEM": "Alpha-1D adrenergic receptor (Homo sapiens, UniProt P25100)", "MEASURED RESULT": "< 4.00"}
{"STRUCTURE AS SMILES": "Cc1cc(-c2ccccc2NCC2=NCCN2)on1", "ASSAYED SYSTEM": "Alpha-1D adrenergic receptor (Homo sapiens, UniProt P25100)", "MEASURED RESULT": "< 4.00"}

Asked: What does the record list as pEC50 for Cc1ncc(-c2ccccc2NCC2=NCCN2)o1 ?
Given back: < 5.30

Asked: What does the record list as pEC50 for c1ccc(-c2ccno2)c(NCC2=NCCN2)c1 ?
Given back: 8.54

Asked: What does the record list as pEC50 for CC/C(=N\OC)c1ccccc1NCC1=NCCN1 ?
Given back: < 4.00

---

Quick list: Max per entry.
ASSAYED SYSTEM: Alpha-1A adrenergic receptor (Homo sapiens)
Sequence (whole entry): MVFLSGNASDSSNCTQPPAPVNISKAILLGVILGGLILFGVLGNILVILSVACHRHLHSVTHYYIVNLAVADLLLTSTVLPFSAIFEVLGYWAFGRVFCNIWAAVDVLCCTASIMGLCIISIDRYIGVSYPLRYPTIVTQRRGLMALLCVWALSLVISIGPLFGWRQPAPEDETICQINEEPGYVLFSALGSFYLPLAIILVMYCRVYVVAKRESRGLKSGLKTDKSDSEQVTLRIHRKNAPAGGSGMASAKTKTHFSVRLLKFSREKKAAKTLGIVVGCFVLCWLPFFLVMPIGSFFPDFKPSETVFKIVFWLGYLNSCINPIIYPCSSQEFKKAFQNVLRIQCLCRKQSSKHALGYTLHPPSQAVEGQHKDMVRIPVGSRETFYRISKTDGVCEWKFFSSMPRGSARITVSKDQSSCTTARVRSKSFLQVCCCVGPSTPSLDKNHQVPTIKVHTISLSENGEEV
METHOD: In vitro human alpha-1A receptor activation determined via calcium mobilization through the Gq coupled PLC pathway in rat-1 fibroblasts as percent maximum of phenylephrine response
Format: functional
Number only, in %; omit the unit.

# count of solved cases: 4
{"STRUCTURE AS SMILES": "CC/C(=N\\OC)c1ccccc1NCC1=NCCN1", "ASSAYED SYSTEM": "Alpha-1A adrenergic receptor (Homo sapiens)", "UOM": "%", "MEASURED RESULT": 112}
{"STRUCTURE AS SMILES": "CC/C(=N/OC)c1ccccc1NCC1=NCCN1", "ASSAYED SYSTEM": "Alpha-1A adrenergic receptor (Homo sapiens)", "UOM": "%", "MEASURED RESULT": 141}
{"STRUCTURE AS SMILES": "CO/N=C(\\C)c1ccccc1NCC1=NCCN1", "ASSAYED SYSTEM": "Alpha-1A adrenergic receptor (Homo sapiens)", "UOM": "%", "MEASURED RESULT": 92}
{"STRUCTURE AS SMILES": "CO/N=C/c1ccccc1NCC1=NCCN1", "ASSAYED SYSTEM": "Alpha-1A adrenergic receptor (Homo sapiens)", "UOM": "%", "MEASURED RESULT": 94}

Then there is this compound:
Asked: What does the record list as Max for CCO/N=C(\C)c1ccccc1NCC1=NCCN1 ?
Given back: 102

---

Quick list: pEC50 per entry.
ASSAYED SYSTEM: Alpha-1A adrenergic receptor (Homo sapiens)
METHOD: In vitro activation of human alpha-1A receptor expressed in rat-1 fibroblasts via calcium mobilization through the Gq coupled PLC pathway as functional assay
Answer as the number alone; pEC50 is minus log10 of concentration in mol/L.

{"STRUCTURE AS SMILES": "c1ccc(-c2cnccn2)c(NCC2=NCCN2)c1", "pEC50": 8.34}
{"STRUCTURE AS SMILES": "Cc1nc(-c2ccccc2NCC2=NCCN2)no1", "pEC50": 6.14}
{"STRUCTURE AS SMILES": "Cc1ncc(-c2ccccc2NCC2=NCCN2)o1", "pEC50": 6.96}
{"STRUCTURE AS SMILES": "c1ccc(-c2ncco2)c(NCC2=NCCN2)c1", "pEC50": 9.18}
{"STRUCTURE AS SMILES": "c1ccc(-c2cnoc2)c(NCC2=NCCN2)c1", "pEC50": 7.34}

Asked: What does the record list as pEC50 for c1csc(-c2ccccc2NCC2=NCCN2)c1 ?
Given back: 8.65

Asked: What does the record list as pEC50 for Cc1ccc(-c2ccccc2NCC2=NCCN2)o1 ?
Given back: 8.57

---

Quick list: pIC50 per entry.
ASSAYED SYSTEM: Alpha-1D adrenergic receptor (Homo sapiens, UniProt P25100)
Sequence (P25100 whole entry): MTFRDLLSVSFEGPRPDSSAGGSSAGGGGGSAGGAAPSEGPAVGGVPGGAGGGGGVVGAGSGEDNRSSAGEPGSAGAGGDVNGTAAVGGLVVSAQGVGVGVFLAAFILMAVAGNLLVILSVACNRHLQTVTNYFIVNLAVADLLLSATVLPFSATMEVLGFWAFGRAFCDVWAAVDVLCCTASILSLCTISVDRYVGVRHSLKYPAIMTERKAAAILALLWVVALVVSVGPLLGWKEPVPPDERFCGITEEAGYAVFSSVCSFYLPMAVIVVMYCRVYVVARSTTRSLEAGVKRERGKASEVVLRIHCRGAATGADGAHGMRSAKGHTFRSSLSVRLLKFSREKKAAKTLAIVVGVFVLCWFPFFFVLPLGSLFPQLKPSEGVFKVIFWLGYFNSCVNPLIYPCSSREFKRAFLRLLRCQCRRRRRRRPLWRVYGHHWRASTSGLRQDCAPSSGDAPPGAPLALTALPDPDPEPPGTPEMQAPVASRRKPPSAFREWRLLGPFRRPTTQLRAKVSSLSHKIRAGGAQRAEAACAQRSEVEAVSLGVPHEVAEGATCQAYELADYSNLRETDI
Answer as the number alone; pIC50 is minus log10 of concentration in mol/L.

# count of solved cases: 4
{"STRUCTURE AS SMILES": "c1ccc(-c2cnco2)c(NCC2=NCCN2)c1", "pIC50": 6.53}
{"STRUCTURE AS SMILES": "c1ccc(-c2ncco2)c(NCC2=NCCN2)c1", "pIC50": 7.39}
{"STRUCTURE AS SMILES": "c1ccc(-c2ccccc2NCC2=NCCN2)nc1", "pIC50": 6.93}
{"STRUCTURE AS SMILES": "c1ccc(-c2ccno2)c(NCC2=NCCN2)c1", "pIC50": 7.42}

Then there is this molecule:
Asked: What does the record list as pIC50 for c1cnc(-c2ccccc2NCC2=NCCN2)nc1 ?
Given back: 6.38
